These entries and their values trace back to patent US12331054B2.

Molecular target: Recombinant human EIF2AK3 (PERK) catalytic domain (amino acids 536-1116) (Homo sapiens (Human))
Assay: PERK In Vitro Activity Assay (isolated), TR-FRET kinase assay
Conditions: isolated PERK enzyme, 1.5 μM ATP, read-out: Biochemical IC50
MEASUREMENT TYPE: IC50

Would you please look over these solved cases?
COMPOUND	IC50
[2H]C([2H])([2H])c1nc(-c2ccc(NC(=O)C(O)c3cccc(C(F)(F)F)c3)nc2C)c2c(N)nc(C)cn12 (stereo not drawn) [Example 176]	1 to 25 nM
[2H]C([2H])([2H])c1nc(-c2ccc(NC(=O)C(O)c3cccc(C(F)(F)F)c3)cc2F)c2c(N)ncc(C)n12 (stereo not drawn) [Example 95]	1 to 25 nM

Entry [2H]C([2H])([2H])c1nc(-c2ccc(NC(=O)C(O)c3cc(F)cc(F)c3)cc2C)c2c(N)ncc(C(F)(F)F)n12 (stereo not drawn) [Example 47] , IC50 reported as 26 to 50 nM

Entry Cc1cc(NC(=O)C(O)c2cccc(F)c2)ccc1-c1nc(C)n2c(C)cnc(N)c12 (stereo not drawn) [Example 9] , IC50 reported as 51 to 100 nM

Entry Cc1cnc(N)c2c(-c3ccc(NC(=O)C(O)c4cccc(Cl)c4)cc3F)nc(C)n12 (stereo not drawn) , IC50 reported as 1 to 25 nM

----------
Tested on: eIF2α in HEK293-EGFP-eIF2α cells
Test: PERK Cellular Assay (HEK293-EGFP-eIF2α cells, tunicamycin-induced ER stress, TR-FRET)
Assay type: cell-based
Settings: tunicamycin 2 hours
pIC50: −log10 of the molar value.
# reported pIC50; entries follow

Would you please look over these solved cases?
MOLECULE	MEASURED ON	MEASUREMENT TYPE	REPORTED RESULT
[2H]C([2H])([2H])c1nc(-c2ccc(NC(=O)C(O)c3cccc(Cl)c3)cc2F)c2c(N)ncc(C)n12 (stereo not shown) [Example 84]	eIF2α in HEK293-EGFP-eIF2α cells	pIC50	7.60 to 9.00
[2H]C([2H])([2H])c1nc(-c2ccc(NC(=O)C(O)c3cccc(C(F)(F)F)c3)nc2C)c2c(N)nc(C)cn12 (stereo not shown) [Example 176]	eIF2α in HEK293-EGFP-eIF2α cells	pIC50	7.00 to 7.29
[2H]C([2H])([2H])c1nc(-c2ccc(NC(=O)C(O)c3cccc(F)c3)cc2F)c2c(N)ncc(Cl)n12 (stereo not shown) [Example 74]	eIF2α in HEK293-EGFP-eIF2α cells	pIC50	7.60 to 9.00

Next:
Value (pIC50, eIF2α in HEK293-EGFP-eIF2α cells) for record [2H]C([2H])([2H])c1nc(-c2ccc(NC(=O)C(O)c3cccc(F)c3)nc2C)c2c(N)nc(C)cn12 (stereo not shown) [Example 170] = 6.60 to 7.00

----------
# reported pIC50; entries follow
Biological target: Recombinant human EIF2AK3 (PERK) catalytic domain (amino acids 536-1116) (Homo sapiens (Human), UniProt Q9NZJ5)
Sequence (Q9NZJ5 536-1116): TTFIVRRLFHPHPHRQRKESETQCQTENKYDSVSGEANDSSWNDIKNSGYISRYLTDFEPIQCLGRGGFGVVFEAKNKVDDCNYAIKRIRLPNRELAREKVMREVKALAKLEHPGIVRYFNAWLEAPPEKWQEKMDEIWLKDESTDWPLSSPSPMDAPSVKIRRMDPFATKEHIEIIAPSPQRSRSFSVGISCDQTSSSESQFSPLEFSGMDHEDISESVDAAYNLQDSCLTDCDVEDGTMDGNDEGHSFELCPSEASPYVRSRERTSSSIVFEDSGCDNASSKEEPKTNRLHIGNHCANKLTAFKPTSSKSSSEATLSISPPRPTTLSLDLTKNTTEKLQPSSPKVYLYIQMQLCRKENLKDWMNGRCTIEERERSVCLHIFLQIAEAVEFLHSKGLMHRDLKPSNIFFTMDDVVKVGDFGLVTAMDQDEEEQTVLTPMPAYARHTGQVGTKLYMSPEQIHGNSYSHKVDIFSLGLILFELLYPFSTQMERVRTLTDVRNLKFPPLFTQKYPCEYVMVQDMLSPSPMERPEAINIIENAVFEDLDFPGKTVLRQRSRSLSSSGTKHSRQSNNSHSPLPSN
Assay: PERK In Vitro Activity Assay (isolated), TR-FRET kinase assay
Conditions: isolated PERK enzyme, 1.5 μM ATP, read-out: Biochemical IC50
pIC50: −log10 of the molar value.

Would you please look over these solved cases?
COMPOUND	REPORTED RESULT
[2H]C([2H])([2H])c1nc(-c2ccc(NC(=O)C(O)c3cccc(F)c3)cc2F)c2c(N)ncc(C(F)(F)F)n12 (stereo not shown) [Example 76]	7.60 to 9.00
Cc1cc(NC(=O)C(O)c2cccc(F)c2)c(F)cc1-c1nc(C)n2c(C)cnc(N)c12 (stereo not shown) [Example 64]	7.00 to 7.29

Entry [2H]C([2H])([2H])c1nc(-c2ccc(NC(=O)C(O)c3cccc(C(F)(F)F)c3)cc2C)c2c(N)nc(C)cn12 (stereo not shown) [Example 15] , pIC50 reported as 6.60 to 7.00

Entry [2H]C([2H])([2H])c1nc(-c2ccc(NC(=O)C(O)c3cccc(C(F)(F)F)c3)cc2F)c2c(N)ncc(Cl)n12 (stereo not shown) [Example 100] , pIC50 reported as 7.60 to 9.00

Entry [2H]C([2H])([2H])c1nc(-c2ccc(NC(=O)C(O)c3cccc(Cl)c3)c(F)c2F)c2c(N)ncc(C(F)(F)F)n12 (stereo not shown) [Example 143] , pIC50 reported as 6.30 to 6.60

Entry [2H]C([2H])([2H])c1nc(-c2cnc(NC(=O)C(O)c3cccc(F)c3)cc2C)c2c(N)nc(C)cn12 (stereo not shown) [Example 179] , pIC50 reported as 7.60 to 9.00

Entry [2H]C([2H])([2H])c1nc(-c2ccc(NC(=O)C(O)c3cc(F)cc(C(F)(F)F)c3)c(F)c2F)c2c(N)ncc(Cl)n12 (stereo not shown) [Example 164] , pIC50 reported as 7.60 to 9.00

----------
# reported IC50; entries follow
System: eIF2α in HEK293-EGFP-eIF2α cells
Assay: PERK Cellular Assay (HEK293-EGFP-eIF2α cells, tunicamycin-induced ER stress, TR-FRET)
Assay type: cell-based
Conditions: tunicamycin 2 hours

Would you please look over these solved cases?
COMPOUND	MEASURED ON	IC50
[2H]C([2H])([2H])c1nc(-c2ccc(NC(=O)C(O)c3cc(F)cc(C(F)(F)F)c3)c(F)c2F)c2c(N)ncc(Cl)n12 (stereo not shown) [Example 164]	eIF2α in HEK293-EGFP-eIF2α cells	1 to 25 nM
[2H]C([2H])([2H])c1nc(-c2ccc(NC(=O)C(O)c3cccc(C(F)(F)F)c3)cc2C)c2c(N)ncc(Cl)n12 (stereo not shown) [Example 18]	eIF2α in HEK293-EGFP-eIF2α cells	1 to 25 nM
[2H]C([2H])([2H])c1nc(-c2ccc(NC(=O)C(O)c3cc(F)cc(C(F)(F)F)c3)cc2C)c2c(N)nc(C)cn12 (stereo not shown) [Example 52]	eIF2α in HEK293-EGFP-eIF2α cells	26 to 50 nM

Entry Cc1cn2c(C)nc(-c3ccc(NC(=O)C(O)c4cccc(F)c4)c(F)c3)c2c(N)n1 (stereo not shown) [Example 118] , IC50 reported as 4000 to 5000 nM

Entry [2H]C([2H])([2H])c1nc(-c2ccc(NC(=O)C(O)c3cccc(C(F)(F)F)c3)c(F)c2F)c2c(N)ncc(Cl)n12 (stereo not shown) [Example 152] , IC50 reported as 1 to 25 nM

Entry [2H]C([2H])([2H])c1nc(-c2ccc(NC(=O)C(O)c3cc(F)cc(F)c3)cc2F)c2c(N)ncc(C(F)(F)F)n12 (stereo not shown) [Example 107] , IC50 reported as 26 to 50 nM

Entry [2H]C([2H])([2H])c1nc(-c2ccc(NC(=O)C(O)c3cccc(C(F)(F)F)c3)cc2F)c2c(N)nc(C)cn12 (stereo not shown) [Example 96] , IC50 reported as 1 to 25 nM

Entry [2H]C([2H])([2H])c1nc(-c2ccc(NC(=O)C(O)c3cccc(C(F)(F)F)c3)cc2C)c2c(N)ncc(C)n12 (stereo not shown) [Example 17] , IC50 reported as 101 to 250 nM

Entry [2H]C([2H])([2H])c1nc(-c2ccc(NC(=O)C(O)c3cc(F)cc(F)c3)c(F)c2F)c2c(N)ncc(C)n12 (stereo not shown) [Example 154] , IC50 reported as 1 to 25 nM

Entry [2H]C([2H])([2H])c1nc(-c2ccc(NC(=O)C(O)c3cc(F)cc(C(F)(F)F)c3)c(F)c2F)c2c(N)nc(C)cn12 (stereo not shown) [Example 166] , IC50 reported as 1 to 25 nM

----------
Tested on: eIF2α in HEK293-EGFP-eIF2α cells
Test: PERK Cellular Assay (HEK293-EGFP-eIF2α cells, tunicamycin-induced ER stress, TR-FRET)
Type: cell-based
Settings: tunicamycin 2 hours
# reported IC50; entries follow

Would you please look over these solved cases?
COMPOUND	IC50
[2H]C([2H])([2H])c1nc(-c2ccc(NC(=O)C(O)c3cccc(F)c3)nc2C)c2c(N)ncc(C)n12 (stereo not drawn) [Example 172]	501 to 1000 nM
[2H]C([2H])([2H])c1nc(-c2ccc(NC(=O)C(O)c3cccc(F)c3)nc2C)c2c(N)ncc(C)n12 (stereo not drawn) [Example 173]	26 to 50 nM
[2H]C([2H])([2H])c1nc(-c2cnc(NC(=O)C(O)c3cccc(F)c3)cc2C)c2c(N)ncc(C)n12 (stereo not drawn) [Example 181]	26 to 50 nM
Cc1cc(NC(=O)C(O)c2cc(F)cc(C(F)(F)F)c2)ccc1-c1nc(C)n2c(C)cnc(N)c12 (stereo not drawn) [Example 59]	101 to 250 nM
[2H]C([2H])([2H])c1nc(-c2ccc(NC(=O)C(O)c3cccc(F)c3)c(F)c2)c2c(N)nc(C)cn12 (stereo not drawn) [Example 121]	51 to 100 nM
[2H]C([2H])([2H])c1nc(-c2ccc(NC(=O)C(O)c3cccc(Cl)c3)cc2F)c2c(N)ncc(C)n12 (stereo not drawn) [Example 85]	51 to 100 nM

Entry [2H]C([2H])([2H])c1nc(-c2ccc(NC(=O)C(O)c3cccc(C(F)(F)F)c3)nc2C)c2c(N)nc(C)cn12 (stereo not drawn) [Example 177] , IC50 reported as 501 to 1000 nM

Entry [2H]C([2H])([2H])c1nc(-c2ccc(NC(=O)C(O)c3cc(F)cc(F)c3)cc2F)c2c(N)ncc(C(F)(F)F)n12 (stereo not drawn) [Example 106] , IC50 reported as 1 to 25 nM
